The values you see were collected from paper PMC7969873.

System: SARS-CoV-2
Type: cell-based
Details: 250 nM, Vero E6 cells, 48 h
MEASUREMENT TYPE: antiviral activity (prevention of viral CPE) in primary screen

See these solved cases before continuing.
COMPOUND | TESTED TARGET | ENDPOINT VALUE
FC(F)c1nc2ccccc2n1-c1nc(N2CCOCC2)nc(N2CCOCC2)n1 | SARS-CoV-2 | antiviral activity
CS(=O)(=O)N1CCN(Cc2cc3nc(-c4cccc5[nH]ncc45)nc(N4CCOCC4)c3s2)CC1 | SARS-CoV-2 | antiviral activity
Cn1cc(C2=C(c3cn(C4CCN(Cc5ccccn5)CC4)c4ccccc34)C(=O)NC2=O)c2ccccc21 | SARS-CoV-2 | antiviral activity
COc1cc2nccc(Oc3ccc(NC(=O)Nc4ccc(F)cc4F)c(F)c3)c2cc1OC | SARS-CoV-2 | antiviral activity
CCS(=O)(=O)Nc1ccc2c(c1)/C(=C(/Nc1ccc(CN3CCCCC3)cc1)c1ccccc1)C(=O)N2 | SARS-CoV-2 | antiviral activity
CSc1cccc(Nc2ncc3cc(-c4c(Cl)cccc4Cl)c(=O)n(C)c3n2)c1 | SARS-CoV-2 | antiviral activity
Cc1c(CN2CCN(C(=O)[C@H](C)O)CC2)sc2c(N3CCOCC3)nc(-c3cnc(N)nc3)nc12 | SARS-CoV-2 | antiviral activity
COc1cc2ncnc(Oc3cccc(NC(=O)Nc4cc(C(C)(C)C(F)(F)F)on4)c3)c2cc1OC | SARS-CoV-2 | antiviral activity
C[C@H](Nc1ncnc2nc[nH]c12)c1cc2cccc(Cl)c2c(=O)n1-c1ccccc1 | SARS-CoV-2 | antiviral activity
O=C1NC(=O)/C(=C/c2ccc3c(c2)OC(F)(F)O3)S1 | SARS-CoV-2 | antiviral activity

Exam item: Report antiviral activity (prevention of viral CPE) in primary screen, nothing else, for this compound: CN1CCN(Cc2ccc(-c3cnc4[nH]cc(-c5ccc6[nH]ccc6c5)c4c3)cc2)CC1
Marked response: antiviral activity

Exam item: Supply antiviral activity (prevention of viral CPE) in primary screen value. Item: CS(=O)(=O)N1CCc2c(-c3cnc(N)nc3)nc(N3CCOCC3)nc21
Marked response: antiviral activity

Exam item: Give the reported value of antiviral activity (prevention of viral CPE) in primary screen for this record: CNCc1ccc(-c2cc(-c3nc(-c4ccc(S(=O)(=O)C(C)C)cc4)cnc3N)on2)cc1
Marked response: antiviral activity

###

Test: HeLa-ACE2 uninfected host cell cytotoxicity counter screen
Assay type: cell-based
Conditions: human, uninfected HeLa-ACE2 cells; read-out: median cytotoxic concentration (CC50)
MEASUREMENT TYPE: CC50 at 24 h (µM)
Dear colleague, please return just the value in µM, with no unit written.

Exam item: Fill in reported CC50 at 24 h for this entry: CNCc1ccc(-c2cc(-c3nc(-c4ccc(S(=O)(=O)C(C)C)cc4)cnc3N)on2)cc1 [Berzosertib]
Marked response: 3.89

###

System: SARS-CoV-2
Assay: microbe, parasite or virus in culture
Format: cell-based
Conditions: Severe acute respiratory syndrome coronavirus 2, Vero C1008, Vero E6 cells; IFA; read-out: IC50, inhibition of SARS-CoV-2 infectivity
pIC50: −log10 of the molar value.
MEASUREMENT TYPE: pIC50

COMPOUND | ENDPOINT VALUE
CC(C)(O)CNc1ncc(-c2ccnc(Nc3ccnc(Cl)c3)n2)c(CC2CC2)n1 [VPS34-IN1] | 6.90 to 7.30
CN1CCN(Cc2ccc(-c3cnc4[nH]cc(-c5ccc6[nH]ccc6c5)c4c3)cc2)CC1 [URMC-099] | 6.90 to 7.30

Exam item: Complete the entry with pIC50 for Cc1cn(-c2cc(NC(=O)c3ccc(C)c(Nc4nccc(-c5cccnc5)n4)c3)cc(C(F)(F)F)c2)cn1 [Nilotinib]
Marked response: 6.90 to 7.30
